- Assay protocol: total protein half-life in vivo (active degradation + dilution); higher = more stable protein
- Condition set: wild type E. coli NCM3722; growth: C-lim chemostat; doubling time 6 h
Parameter measured: total protein half-life in vivo
Reply with the number, then its unit.

Entry MSDTNYAVIYDLHSHTTASDGCLTPEALVHRAVEMRVGTLAITDHDTTAAIAPAREEISRSGLALNLIPGVEISTVWENHEIHIVGLNIDITHPLMCEFLAQQTERRNQRAQLIAERLEKAQIPGALEGAQRLAQGGAVTRGHFARFLVECGKASSMADVFKKYLARGKTGYVPPQWCTIEQAIDVIHHSGGKAVLAHPGRYNLSAKWLKRLVAHFAEHHGDAMEVAQCQQSPNERTQLAALARQHHLWASQGSDFHQPCPWIELGRKLWLPAGVEGVWQLWEQPQNTTEREL has what total protein half-life in vivo? 3.06 h

I have this sequence here, MATTQQSGFAPAASPLASTIVQTPDDAIVAGFTSIPSQGDNMPAYHARPKQSDGPLPVVIVVQEIFGVHEHIRDICRRLALEGYLAIAPELYFREGDPNDFADIPTLLSGLVAKVPDSQVLADLDHVASWASRNGGDVHRLMITGFCWGGRITWLYAAHNPQLKAAVAWYGKLTGDKSLNSPKQPVDIATDLNAPILGLYGGQDNSIPQESVETMRQALRAANAKAEIIVYPDAGHAFNADYRPSYHAASAEDGWQRMLEWFKQYGGKKSL , and I need its recorded total protein half-life in vivo. 4.52 h

Quick check: total protein half-life in vivo of MAYSKIRQPKLSDVIEQQLEFLILEGTLRPGEKLPPERELAKQFDVSRPSLREAIQRLEAKGLLLRRQGGGTFVQSSLWQSFSDPLVELLSDHPESQYDLLETRHALEGIAAYYAALRSTDEDKERIRELHHAIELAQQSGDLDAESNAVLQYQIAVTEAAHNVVLLHLLRCMEPMLAQNVRQNFELLYSRREMLPLVSSHRTRIFEAIMAGKPEEAREASHRHLAFIEEILLDRSREESRRERSLRRLEQRKN [P0ACL9] ? 6.36 h

Please report the recorded total protein half-life in vivo for MRTVLNILNFVLGGFATTLGWLLATLVSIVLIFTLPLTRSCWEITKLSLVPYGNEAIHVDELNPAGKNVLLNTGGTVLNIFWLIFFGWWLCLMHIATGIAQCISIIGIPVGIANFKIAAIALWPVGRRVVSVETAQAAREANARRRFE [P0AB12] . 6.33 h

Look at this sequence and give its reported total protein half-life in vivo. MSAGSPKFTVRRIAALSLVSLWLAGCSDTSNPPAPVSSVNGNAPANTNSGMLITPPPKMGTTSTAQQPQIQPVQQPQIQATQQPQIQPVQPVAQQPVQMENGRIVYNRQYGNIPKGSYSGSTYTVKKGDTLFYIAWITGNDFRDLAQRNNIQAPYALNVGQTLQVGNASGTPITGGNAITQADAAEQGVVIKPAQNSTVAVASQPTITYSESSGEQSANKMLPNNKPTATTVTAPVTVPTASTTEPTVSSTSTSTPISTWRWPTEGKVIETFGASEGGNKGIDIAGSKGQAIIATADGRVVYAGNALRGYGNLIIIKHNDDYLSAYAHNDTMLVREQQEVKAGQKIATMGSTGTSSTRLHFEIRYKGKSVNPLRYLPQR [P0ADA3] 5.92 h

Field request: total protein half-life in vivo | item: MDKQSLHETAKRLALELPFVELCWPFGPEFDVFKIGGKIFMLSSELRGVPFINLKSDPQKSLLNQQIYPSIKPGYHMNKKHWISVYPGEEISEALLRDLINDSWNLVVDGLAKRDQKRVRPG [P0AAT2] 5.17 h

Can you share its total protein half-life in vivo? I mean this sequence: MHCPFCFAVDTKVIDSRLVGEGSSVRRRRQCLVCNERFTTFEVAELVMPRVVKSNDVREPFNEEKLRSGMLRALEKRPVSSDDVEMAINHIKSQLRATGEREVPSKMIGNLVMEQLKKLDKVAYIRFASVYRSFEDIKEFGEEIARLED [P0A8D0] 4.6 h

Using the record for MIKQRTLKRIVQATGVGLHTGKKVTLTLRPAPANTGVIYRRTDLNPPVDFPADAKSVRDTMLCTCLVNEHDVRISTVEHLNAALAGLGIDNIVIEVNAPEIPIMDGSAAPFVYLLLDAGIDELNCAKKFVRIKETVRVEDGDKWAEFKPYNGFSLDFTIDFNHPAIDSSNQRYAMNFSADAFMRQISRARTFGFMRDIEYLQSRGLCLGGSFDCAIVVDDYRVLNEDGLRFEDEFVRHKMLDAIGDLFMCGHNIIGAFTAYKSGHALNNKLLQAVLAKQEAWEYVTFQDDAELPLAFKAPSAVLA [P0A725] , report its total protein half-life in vivo. 0.861 h

Endpoint output: total protein half-life in vivo of MATNAKPVYKRILLKLSGEALQGTEGFGIDASILDRMAQEIKELVELGIQVGVVIGGGNLFRGAGLAKAGMNRVVGDHMGMLATVMNGLAMRDALHRAYVNARLMSAIPLNGVCDSYSWAEAISLLRNNRVVILSAGTGNPFFTTDSAACLRGIEIEADVVLKATKVDGVFTADPAKDPTATMYEQLTYSEVLEKELKVMDLAAFTLARDHKLPIRVFNMNKPGALRRVVMGEKEGTLITE [P0A7E9] . Value? 7 h

Given MAVQKNVIKGILAGTFALMLSGCVTVPDAIKGSSPTPQQDLVRVMSAPQLYVGQEARFGGKVVAVQNQQGKTRLEIATVPLDSGARPTLGEPSRGRIYADVNGFLDPVDFRGQLVTVVGPITGAVDGKIGNTPYKFMVMQVTGYKRWHLTQQVIMPPQPIDPWFYGGRGWPYGYGGWGWYNPGPARVQTVVTE [P0AA91] , state its recorded total protein half-life in vivo. 6.05 h

Quick check: total protein half-life in vivo of MLYIFDLGNVIVDIDFNRVLGAWSDLTRIPLASLKKSFHMGEAFHQHERGEISDEAFAEALCHEMALPLSYEQFSHGWQAVFVALRPEVIAIMHKLREQGHRVVVLSNTNRLHTTFWPEEYPEIRDAADHIYLSQDLGMRKPEARIYQHVLQAEGFSPSDTVFFDDNADNIEGANQLGITSILVKDKTTIPDYFAKVLC [P0A8Y3] ? 6.31 h

Please give the measured total protein half-life in vivo for this sequence: MANWLNQLQSLLGQSSSSTSSSADQGLVKLLVPGALGGLAGLLVANKSARKLLTKYGTNALLVGGGAVAGTVLWNKYKDKIRAAHQDEPQFGAQSTPLDERTARLILALVFAAKSDGHIDAKERAAIDQQLRGAGVEEQGRVLIEQAIEQPLDPQRLATGVRNEEEALEIYFLSCAAIDIDHFMERSYLNALGDALKIPQDVRDGIERDLEQQKRTLAE 4.49 h
